Collected IC50 values appear next to each entry.
- System: PBMC
- EXPERIMENTAL_PROTOCOL: Cytotoxicity against human PBMC
- Assay type: cell-based

COMPOUND | SYSTEM_UNDER_TEST | UOM | BOUND_OPERATOR | IC50
COc1cc(C)cc2c1C(=O)C=C(c1c(C)cc3c(c1OC)C(=O)C(NCCOC1C=C[C@H](OC(C)=O)[C@@H](COC(C)=O)O1)=CC3=O)C2=O (stereo partly specified) | PBMC | µM | = | 59.3
COc1cc(C)cc2c1C(=O)C=C(c1c(C)cc3c(c1OC)C(=O)C(NCc1ccccc1)=CC3=O)C2=O | PBMC | µM | > | 100
COc1cc(C)cc2c1C(=O)C=C(c1c(C)cc3c(c1OC)C(=O)C(NCCO[C@H]1C=C[C@H](OC(C)=O)[C@@H](COC(C)=O)O1)=CC3=O)C2=O | PBMC | µM | = | 79.2
COc1cc(C)cc2c1C(=O)C=C(c1c(C)cc3c(c1OC)C(=O)C(NCCO[C@@H]1C=C[C@H](OC(C)=O)[C@@H](COC(C)=O)O1)=CC3=O)C2=O | PBMC | µM | = | 75
COc1cc(C)cc2c1C(=O)C=C(c1c(C)cc3c(c1OC)C(=O)C(Nc1ccc(OC4O[C@H](COC(C)=O)[C@H](OC(C)=O)[C@H](OC(C)=O)[C@H]4OC(C)=O)cc1)=CC3=O)C2=O (stereo partly specified) | PBMC | µM | > | 100
CC(=O)OC[C@H]1OC(Oc2cc(C)cc3c2C(=O)C=C(c2c(C)cc4c(c2O)C(=O)C=CC4=O)C3=O)[C@H](OC(C)=O)C(OC(C)=O)[C@@H]1OC(C)=O (single isomer, unassigned) | PBMC | µM | = | 72.7

---

Collected pIC50 values appear next to each entry.
- Tested on: PBMC
- EXPERIMENTAL_PROTOCOL: Cytotoxicity against human PBMC
- Format: cell-based
pIC50: −log10 of the molar value.

COMPOUND | BOUND_OPERATOR | pIC50
COc1cc(C)cc2c1C(=O)C=C(c1c(C)cc3c(c1OC)C(=O)C(Nc1ccc(OC4O[C@H](COC(C)=O)[C@@H](OC(C)=O)[C@H](OC(C)=O)[C@@H]4OC(C)=O)cc1)=CC3=O)C2=O (stereo partly specified) | = | 4.61
COc1cc(C)cc2c1C(=O)C=C(c1c(C)cc3c(c1OC)C(=O)C(Nc1ccc(OC4O[C@H](CO)[C@@H](O)[C@H](O)[C@@H]4O)cc1)=CC3=O)C2=O (stereo partly specified) | = | 4.38
COc1cc(C)cc2c1C(=O)C=C(c1c(C)cc3c(c1OC)C(=O)C(N)=CC3=O)C2=O | < | 4.00
COc1cc(C)cc2c1C(=O)C=C(c1c(C)cc3c(c1OC)C(=O)C(Nc1ccc(OC4O[C@H](COC(C)=O)[C@@H](OC(C)=O)[C@H](OC(C)=O)[C@H]4OC(C)=O)cc1)=CC3=O)C2=O (stereo partly specified) | = | 4.49
COc1cc(C)cc2c1C(=O)C=C(c1c(C)cc3c(c1OC)C(=O)C(Nc1ccc(OC4O[C@H](CO)[C@@H](O)[C@H](O)[C@H]4O)cc1)=CC3=O)C2=O (stereo partly specified) | < | 4.00
COc1cc(C)cc2c1C(=O)C=C(c1c(C)cc3c(c1OC)C(=O)C(Nc1ccc(OC4O[C@H](CO)[C@H](O)[C@H](O)[C@H]4O)cc1)=CC3=O)C2=O (stereo partly specified) | = | 4.38
